Assay: Cytotoxicity against SKBR3 cells after 72 hrs by MTT assay
Type: cell-based
Settings: Homo sapiens, SK-BR-3, 72 h
pIC50: −log10 of the molar value.
Where pIC50 equals or exceeds 6, the correct label is true; where it does not, the label is false.

{"Compound": "COc1ccc2nc3cc(Cl)ccc3c(NCCCN(CCCNc3c4ccc(Cl)cc4nc4ccc(OC)cc34)Cc3ccc(Br)o3)c2c1", "Class Assignment": "false"}
{"Compound": "CCN(CCCNc1c2ccc(Cl)cc2nc2ccc(OC)cc12)CCCNc1c2ccc(Cl)cc2nc2ccc(OC)cc12", "Class Assignment": "false"}
{"Compound": "COc1ccc2nc3cc(Cl)ccc3c(NCCCN(CCCNc3c4ccc(Cl)cc4nc4ccc(OC)cc34)Cc3ccc(Cl)cc3)c2c1", "Class Assignment": "true"}
{"Compound": "COc1ccc2nc3cc(Cl)ccc3c(NCCCCN(CCCNc3c4ccc(Cl)cc4nc4ccc(OC)cc34)Cc3ccco3)c2c1", "Class Assignment": "false"}
{"Compound": "COc1ccc2nc3cc(Cl)ccc3c(NCCCN(CCCNc3c4ccc(Cl)cc4nc4ccc(OC)cc34)CC3OC(C)(C)OC3C3COC(C)(C)O3)c2c1 (stereo not given)", "Class Assignment": "false"}
{"Compound": "CCCN(CCCNc1c2ccc(Cl)cc2nc2ccc(OC)cc12)CCCNc1c2ccc(Cl)cc2nc2ccc(OC)cc12", "Class Assignment": "false"}
{"Compound": "COc1ccc2nc3cc(Cl)ccc3c(NCCCCNCCCNc3c4ccc(Cl)cc4nc4ccc(OC)cc34)c2c1", "Class Assignment": "true"}

====

Test: Toxicity in ICR mouse
Format: organism-based
Conditions: in vivo
Consider the following molecules and their measured MTD readings.

{"Smiles Text": "COc1ccc2nc3cc(Cl)ccc3c(NCCCN(C)CCCNc3c4ccc(Cl)cc4nc4ccc(OC)cc34)c2c1", "MTD [mg/kg]": 22.5}
{"Smiles Text": "COc1ccc2nc3cc(Cl)ccc3c(NCCCN(CCCNc3c4ccc(Cl)cc4nc4ccc(OC)cc34)Cc3ccccn3)c2c1", "MTD [mg/kg]": 10}
{"Smiles Text": "CCN(CCCNc1c2ccc(Cl)cc2nc2ccc(OC)cc12)CCCNc1c2ccc(Cl)cc2nc2ccc(OC)cc12", "MTD [mg/kg]": 30}
{"Smiles Text": "COc1ccc2nc3cc(Cl)ccc3c(NCCCN(CCCNc3c4ccc(Cl)cc4nc4ccc(OC)cc34)Cc3ccoc3)c2c1", "MTD [mg/kg]": 10}
{"Smiles Text": "COc1ccc2nc3cc(Cl)ccc3c(NCCCNCCCNc3c4ccc(Cl)cc4nc4ccc(OC)cc34)c2c1", "MTD [mg/kg]": 10}

====

Experiment: Cytotoxicity against SKBR3 cells after 72 hrs by MTT assay
Format: cell-based
Conditions: Homo sapiens, SK-BR-3, 72 h
Consider the following compounds and their measured IC50 readings.
Experimental Endpoint: IC50 (nM)

{"Compound": "COc1ccc2nc3cc(Cl)ccc3c(NCCCN(CCCNc3c4ccc(Cl)cc4nc4ccc(OC)cc34)Cc3ccc(F)cc3F)c2c1", "Unit": "nM", "Value Measured": 780}
{"Compound": "COc1ccc2nc3cc(Cl)ccc3c(NCCCN(CCCNc3c4ccc(Cl)cc4nc4ccc(OC)cc34)Cc3ccc(Br)s3)c2c1", "Unit": "nM", "Value Measured": 5800}
{"Compound": "COc1cccc2c1C(=O)c1c(O)c3c(c(O)c1C2=O)C[C@@](O)(C(=O)CO)C[C@@H]3O[C@H]1C[C@H](N)[C@H](O)[C@H](C)O1", "Unit": "nM", "Value Measured": 290}
{"Compound": "COc1ccc2nc3cc(Cl)ccc3c(NCCCCN(CCCNc3c4ccc(Cl)cc4nc4ccc(OC)cc34)Cc3ccsc3)c2c1", "Unit": "nM", "Value Measured": 990}
{"Compound": "COc1ccc2nc3cc(Cl)ccc3c(NCCCN(CCCNc3c4ccc(Cl)cc4nc4ccc(OC)cc34)CC3CC3)c2c1", "Unit": "nM", "Value Measured": 820}
{"Compound": "COc1cccc(CN(CCCCNc2c3ccc(Cl)cc3nc3ccc(OC)cc23)CCCNc2c3ccc(Cl)cc3nc3ccc(OC)cc23)c1", "Unit": "nM", "Value Measured": 1300}
{"Compound": "CCCCCCN(CCCNc1c2ccc(Cl)cc2nc2ccc(OC)cc12)CCCNc1c2ccc(Cl)cc2nc2ccc(OC)cc12", "Unit": "nM", "Value Measured": 6140}
{"Compound": "COc1ccc2nc3cc(Cl)ccc3c(NCCCN(CCCNc3c4ccc(Cl)cc4nc4ccc(OC)cc34)Cc3cccnc3)c2c1", "Unit": "nM", "Value Measured": 640}
{"Compound": "COc1ccc2nc3cc(Cl)ccc3c(NCCCN(CCCNc3c4ccc(Cl)cc4nc4ccc(OC)cc34)Cc3ccccc3)c2c1", "Unit": "nM", "Value Measured": 700}
{"Compound": "COc1ccc2nc3cc(Cl)ccc3c(NCCCN(CCCNc3c4ccc(Cl)cc4nc4ccc(OC)cc34)CCc3ccccc3)c2c1", "Unit": "nM", "Value Measured": 680}
{"Compound": "COc1ccc2nc3cc(Cl)ccc3c(NCCCN(CCCNc3c4ccc(Cl)cc4nc4ccc(OC)cc34)Cc3sccc3C)c2c1", "Unit": "nM", "Value Measured": 70}
{"Compound": "COc1ccc2nc3cc(Cl)ccc3c(NCCCN(CCCNc3c4ccc(Cl)cc4nc4ccc(OC)cc34)Cc3ccsc3)c2c1", "Unit": "nM", "Value Measured": 1170}
{"Compound": "COc1ccc2nc3cc(Cl)ccc3c(NCCCN(CCCNc3c4ccc(Cl)cc4nc4ccc(OC)cc34)CC3COC(C)(C)O3)c2c1 (stereo not given)", "Unit": "nM", "Value Measured": 6610}
{"Compound": "COc1ccc2nc3cc(Cl)ccc3c(NCCCCN(CCCNc3c4ccc(Cl)cc4nc4ccc(OC)cc34)CC3CC3)c2c1", "Unit": "nM", "Value Measured": 720}
{"Compound": "COc1ccc2nc3cc(Cl)ccc3c(NCCCCN(CCCNc3c4ccc(Cl)cc4nc4ccc(OC)cc34)Cc3ccoc3)c2c1", "Unit": "nM", "Value Measured": 710}
